Below, each of the compounds is paired with its reported GI50 value.
Tested on: 786-0 cells
Test: In vitro cytotoxicity / cell growth inhibition, renal cancer
Assay type: cell-based
Conditions: Homo sapiens; 786-0, renal cancer, 48 hr; read-out: log10 G150 (converted)
Kindly answer with a numeric value in µM, unit omitted.

Compound	Display Unit	GI50
C(CNCCCN1CC1)CNCCCN1CC1 [Synthesis Example 2, 1,11-Diaziridinyl-4,8-diazaundecane]	µM	3.39

Q: Fill in GI50 for record CC1CN1CCCNCCCCNCCCN1CC1C (stereo not shown) [Synthesis Example 4]
Result: 4.47

Q: Fill in GI50 for record C(CCNCCCN1CC1)CNCCCN1CC1 [Synthesis Example 1, 1,12-Diaziridinyl-4,9-diazadodecane]
Result: 0.0112

Q: Fill in GI50 for record CC(CCNCCCCNCCC(C)N1CC1)N1CC1 (stereo not shown) [Synthesis Example 3, 2,13-Diaziridinyl-5,10-diazatetradecane]
Result: 3.8
